Could you please report measured pIC50 for the items listed next?
- Test system: Plasmodium falciparum
- Assay info: Antimalarial activity against chloroquine-sensitive Plasmodium falciparum D6 infected in RBC after 72 hrs by LDH release assay
- Format: functional, organism-based
- Test parameters: D6, 72 h
Answers are plain numbers, as −log10 of the molar value.

[
  {
    "Molecule": "Cc1cc(N(CCCNc2ccnc3cc(Cl)ccc23)Cc2ccccn2)nc(N2CCOCC2)n1",
    "Study target": "Plasmodium falciparum",
    "pIC50": 6.94
  },
  {
    "Molecule": "Cc1cc(N2CCN(C)CC2)nc(N(CCCNc2ccnc3cc(Cl)ccc23)Cc2cccs2)n1",
    "Study target": "Plasmodium falciparum",
    "pIC50": 7.41
  },
  {
    "Molecule": "C[C@@H]1CC[C@H]2[C@@H](C)C(=O)O[C@@H]3O[C@@]4(C)CC[C@@H]1[C@]32OO4 [ARTEMISININ]",
    "Study target": "Plasmodium falciparum",
    "pIC50": 7.77
  }
]

// moving on: another record for pIC50
Inquiry: Fill blank: measured pIC50 of the molecule Cc1cc(N2CCCCC2)nc(N(CCCNc2ccnc3cc(Cl)ccc23)Cc2ccccn2)n1 is ____.
Reply text: 5.92

----------
- System: Plasmodium falciparum
- Assay info: Antimalarial activity against chloroquine-sensitive Plasmodium falciparum D6 infected in RBC after 72 hrs by LDH release assay
- Assay type: functional, organism-based
- Test parameters: D6, 72 h
Could you please report measured IC50 for the items listed next?
Give bare numbers, in nM.

# example entries with known answers
[
  {
    "Smiles": "Cc1cc(N2CCCC2)nc(N(CCCNc2ccnc3cc(Cl)ccc23)Cc2ccccn2)n1",
    "Study target": "Plasmodium falciparum",
    "IC50 [nM]": 1040
  },
  {
    "Smiles": "Cc1cc(N(CCCNc2ccnc3cc(Cl)ccc23)Cc2cccs2)nc(N2CCN(C)CC2)n1",
    "Study target": "Plasmodium falciparum",
    "IC50 [nM]": 37
  },
  {
    "Smiles": "CCN1CCN(c2nc(C)cc(N(CCCNc3ccnc4cc(Cl)ccc34)Cc3ccccn3)n2)CC1",
    "Study target": "Plasmodium falciparum",
    "IC50 [nM]": 28
  },
  {
    "Smiles": "Cc1cc(N(CCNc2ccnc3cc(Cl)ccc23)Cc2ccccn2)nc(Cl)n1",
    "Study target": "Plasmodium falciparum",
    "IC50 [nM]": 233
  }
]

Give IC50 for each listed item.
1. Cc1cc(Cl)nc(N(CCCNc2ccnc3cc(Cl)ccc23)Cc2ccccn2)n1
2. Cc1cc(N2CCN(C)CC2)nc(N(CCNc2ccnc3cc(Cl)ccc23)Cc2ccccn2)n1
3. Cc1cc(N(CCCNc2ccnc3cc(Cl)ccc23)Cc2cccs2)nc(N2CCOCC2)n1
4. Cc1cc(N(CCCNc2ccnc3cc(Cl)ccc23)Cc2ccccn2)nc(Cl)n1

Reply text:
1660
40
55.2
1390

Give IC50 for each listed item.
1. Cc1cc(N2CCOCC2)nc(N(CCCNc2ccnc3cc(Cl)ccc23)Cc2ccccn2)n1
2. Cc1cc(N(CCNc2ccnc3cc(Cl)ccc23)Cc2ccccn2)nc(N2CCOCC2)n1
3. Cc1cc(N(CCCNc2ccnc3cc(Cl)ccc23)Cc2cccs2)nc(N2CCCC2)n1
4. Cc1cc(N2CCN(C)CC2)nc(N(CCCNc2ccnc3cc(Cl)ccc23)Cc2ccccn2)n1
5. Cc1cc(N2CCOCC2)nc(N(CCCNc2ccnc3cc(Cl)ccc23)Cc2cccs2)n1
6. Cc1cc(N2CCCCC2)nc(N(CCNc2ccnc3cc(Cl)ccc23)Cc2ccccn2)n1
7. Cc1cc(N(CCNc2ccnc3cc(Cl)ccc23)Cc2ccccn2)nc(N2CCCC2)n1
8. Cc1cc(N2CCCCC2)nc(N(CCCNc2ccnc3cc(Cl)ccc23)Cc2cccs2)n1

Reply text:
1. 1140
2. 152
3. 42
4. 551
5. 55.8
6. 252
7. 30
8. 44.6

Give IC50 for each listed item.
1. Cc1cc(Cl)nc(N(CCNc2ccnc3cc(Cl)ccc23)Cc2ccccn2)n1
2. Cc1cc(N(CCCNc2ccnc3cc(Cl)ccc23)Cc2ccccn2)nc(N2CCCC2)n1

Reply text:
1: 369; 2: 36

Give IC50 for each listed item.
1. Cc1cc(N(CCNc2ccnc3cc(Cl)ccc23)Cc2ccccn2)nc(N2CCCCC2)n1
2. Cc1cc(N(CCCNc2ccnc3cc(Cl)ccc23)Cc2cccs2)nc(N2CCCCC2)n1

Reply text:
[65, 83.7]

Entry source: ChEMBL document CHEMBL4325903
